- Tested on: Zika virus NS2B-NS3 protease (linked construct)
- protocol-notes: Primary screen NINDS Rhodamine qHTS for Zika virus inhibitors (AID 1347160); note: nearly all actives have a fitted effect of over 55% in size
- stated-conditions: purified NS2B-NS3 protease, Rhodamine110 substrate fluorescence; series mostly up to 57.1 µM
Results filed as inconclusive are left out. The source made the active and inactive calls. Calls come from the whole dose curve; as a rule, active = well fitted inhibition curve with a large enough effect; inconclusive = small, poorly fitted or top-dose-only effect; inactive = no such curve, though single readings can be large or run the other way.
Give one outcome, nothing more. List: active, inactive

Hello, I am checking results. What call was entered for N#Cc1ccc(COc2ccc(-c3cccc4nc(NC(=O)C5CC5)nn34)cc2)cn1 ?
inactive

Given C=C1CC2[C@@]3(C)C=CC(=O)C(C)(C)C3=C(O)C(=O)[C@@]2(C)C2(C(=O)OC)C(=O)C(C)OC(=O)[C@@]12C (stereo partly drawn) , state the outcome it received in this test.
inactive

Status in this test for CC(C)(F)CC(NC(c1ccc(-c2ccc(S(C)(=O)=O)cc2)cc1)C(F)(F)F)C(=O)NC1(C#N)CC1 (stereo not drawn) ?
inactive

Record lookup: outcome of this test for CCCC(CCC)C(=O)Nc1ccn([C@@H]2O[C@H](CO)[C@@H](O)C2(F)F)c(=O)n1 ?
inactive

Tell me the recorded outcome of this test for CCCc1cc(C)[nH]c(=O)c1CNC(=O)c1cc(-c2ccc(N3CCN(C(C)C)CC3)nc2)cc2c1cnn2C(C)C .
inactive

Record lookup: outcome of this test for CC(=O)C=C=C1C(C)(C)CC(O)CC1(C)O[C@@H]1O[C@H](CO[C@H]2OC[C@](O)(CO)[C@H]2O)[C@@H](O)[C@H](O)[C@H]1O (stereo partly drawn) ?
active

Tell me the assay call for Cc1[nH]c(/C=C2\C(=O)Nc3ccc(F)cc32)c(C)c1C(=O)NCCN1CCCC1 please.
inactive

What outcome does the record of this test show for COC(=O)c1ccc2c(c1)nc(NC(=O)c1ccccc1)n2CCCc1ccccc1 ?
inactive

Hi, sorry to bother you, what did the test record for C=C1C(=O)O[C@H]2C[C@@H](C)[C@@H]3CCC(=O)[C@@]3(C)C[C@H]12 ?
inactive

What is the recorded call for this compound in the test? Nc1nc(Nc2ccc3c(c2)CCC(N2CCCC2)CC3)nn1-c1cc2c(nn1)-c1ccccc1CCC2 (stereo not drawn)
inactive

Each compound tested received a call. Report the one for Cc1cn(CCN2CCN(c3ccccc3-c3cc(C#N)cc(C(=O)NCCCN4CCCC4)c3)CC2)c2ccccc12 .
inactive

So what was the verdict on CN1CCC(c2cn(C)c3ccc(OS(=O)(=O)c4c(F)cccc4F)cc23)CC1 in this test?
inactive

Write down the call the test reported for this compound. Item: CCN1C(C)(C)CC(Oc2ccc(C(=O)Nc3ccc(NC(=O)Nc4cc(C(C)(C)C)on4)cc3)nc2)CC1(C)C
inactive

Answer briefly: the call reported for CN(C)CCN(Cc1ccccc1)C(=O)c1cc(-c2ccc(F)cc2)n2nc(C(C)(C)C)cc2n1 in this assay.
inactive

// outcome(item) with item = CC(C)CCCCC(=O)N[C@@H](CO)C(=O)N[C@@H](CC(C)C)C(=O)[C@@]1(CO)CO1
inactive

Please indicate how the test categorized Cc1cc(C(C)Nc2ccccc2C(=O)O)c2nc(N3CCOCC3)cc(=O)n2c1 (stereo not drawn) .
inactive

What outcome does the record of this test show for C=CC(=O)Nc1cc(-n2c(=O)ccc3cnc4ccc(-c5ccc(NS(C)(=O)=O)cc5)cc4c32)ccc1C ?
inactive

// outcome(item) with item = Cc1[nH]c2ccccc2c1CCNC(=O)c1cccs1
inactive
